Data origin: patent US20250145566A1

molecular target: 5-HT2B (h) (Homo sapiens); construct: expressed in transfected cells; host or cells: CHO cells; assay: 5-HT2B (h) agonist effect, IP1 HTRF functional assay; format: cell-based; settings: Gq-IP1; estimated from four concentrations; read-out: Function 5-HT2B Estimated EC50
Sequence (P41595 whole entry): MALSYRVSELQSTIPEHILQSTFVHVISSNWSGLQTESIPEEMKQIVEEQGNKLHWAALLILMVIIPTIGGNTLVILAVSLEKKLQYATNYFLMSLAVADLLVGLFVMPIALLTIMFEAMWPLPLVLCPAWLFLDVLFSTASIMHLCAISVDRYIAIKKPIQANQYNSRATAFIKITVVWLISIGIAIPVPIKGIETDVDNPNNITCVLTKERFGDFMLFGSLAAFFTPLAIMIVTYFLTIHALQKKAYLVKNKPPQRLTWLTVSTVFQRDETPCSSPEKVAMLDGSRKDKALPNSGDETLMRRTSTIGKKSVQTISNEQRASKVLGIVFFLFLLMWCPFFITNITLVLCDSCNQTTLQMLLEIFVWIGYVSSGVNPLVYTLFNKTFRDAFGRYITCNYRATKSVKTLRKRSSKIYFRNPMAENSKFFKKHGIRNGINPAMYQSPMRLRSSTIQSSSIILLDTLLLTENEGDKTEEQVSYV
pEC50: −log10 of the molar value.
PROPERTY: pEC50

I would be grateful if you could share the reported pEC50 for CC(N)Cc1ccc2c(c1)OCS2 (racemic) [II-16 (racemic)] .
> 6.30

---

Experiment: Rat liver microsomes (RLM) in vitro metabolism
Assay type: in vitro ADME
Conditions: Sprague-Dawley; rat liver microsomes (Table 18); read-out: RLM t1/2
Experimental: Rat Liver Microsomes (RLM). Male Sprague-Dawley rat liver microsomes were purchased from XenoTech. The reaction mixture, minus NADPH, was prepared as described in Table 10. […] Half-lives were calculated using GraphPad software, fitting to a single-phase exponential decay equation. In a different series of reactions using RLM, a 10 mM stock solution of the test compound was prepared in DMSO. […] The samples were centrifuged, and the supernatant was analyzed by LC-MS/MS. […]
# maps each entry to its half-life at 1 µM
Supply the numeric figure in min, leaving out any unit text.

MOLECULE	half-life at 1 µM, min
[2H]C([2H])([2H])Oc1cc(SC)c(OC([2H])([2H])[2H])cc1C[C@H](C)N [IV-9 (S)]	6.3

Would you mind telling me what half-life at 1 µM value was observed for COc1cc(SC(F)(F)F)c(OC)cc1CC(C)N (racemic) [IV-1 (racemic)] ?
40.7

Look up half-life at 1 µM: [2H]C([2H])([2H])Oc1cc(SC)c(OC([2H])([2H])[2H])cc1C[C@@H](C)N [IV-9 (R)]
16.6
